# target-system: T1, M5-2
# T1 construct: also called PD1 mutant M5-2
# measurement-notes: scFv-phage ELISA
result-type: OD490
Reply briefly: the number, and no unit.

Inquiry: For PD1-42G4 (antibody, V domains shown, scFv-phage in the screening ELISA; later whole IgG) VH: QVQLVESGGGLVKPGGSLRLSCAASGFTFSDYYMSWIRQAPGKGLEWVSDISASGNSIYYADSVKRRFTISRDNSKNSLYLQMNSLRAEDTAVYYCVTSGPFGEFRNWGLGTLVTVSS VL: DIQMTQSPSSLSASVGDRVTTTCRASQGISSYLAWYQQKPGKAPKLLIYAASTLQSGVPSRFSGSGSGTDFTLTISSLQPEDFATYFCQQSYTSPRTFGQGTKLDIK , write its OD490.
Reply text: 3.5

Inquiry: Answer with the recorded OD490 of PD1-45F4 (antibody, V domains shown, scFv-phage in the screening ELISA; later whole IgG) VH: QMQLVESGGGLVQPGRSLRLSCAASGFTFDDYAMHWVRQAPGQGLEWVSGISWNSNNIKYADSVKGRFTISRDNSKNSLYLQMNSLRAEDTAVYYCARGALTPLDVWGQGTPVTVSS VL: SYELTQAPSLSVSPGQTANIICSGDNLRTKYVSWYQQKPGQSPLLVIYQDTRRPSGIPARFSGSNSGNTATLTISGTQTRDESTYYCMTWDVDTTSMIFGGGTKLTVL only.
Reply text: 3.1

Inquiry: // Input: PD1-44B5 (antibody, V domains shown, scFv-phage in the screening ELISA; later whole IgG) VH: QVQLVESGGGVVQPGRSLRLSCAASGFTFSSYAMHWVRQAPGKGLEWVAVISYDGSNKYYADSVKGRFTISRDNSKNTLYLQMNSLRAEDTAVYYCARLMHTFSVQYFLDVWGQGTTVTVSS VL: QFVLTQSPSASGTPGQNIVISCSASTFNIGTTTVNWYQRLPGTAPKLLIYNYDQRPSGVPDRFSGSKSGTSASLAISGLQSEDEADYYCAAWDDSLNAWLFGGGTKLTVL . Output its OD490 only.
Reply text: 3.8

Inquiry: Give the reported OD490 for this binder. PD1-48A9 (antibody, V domains shown, scFv-phage in the screening ELISA; whole IgG in the other assays) VH: QMQLVQSGAEVKKPGSSVKVSCKASGDTFTRYIINWVRQAPGQGLEWMGRVIPTLGLTTYAQNFQDTVTIIADKSTNTAYMELKNLRSEDTAVYYCARGYGSGAFDIWGQGTMITVSS VL: DIVMTQTPLSLPVTPGEPASISCRSSQSLLDSHDGNTYLDWYLQKPGQSPQLLIYTLSHRASGVPDRFSGSGSGTDFTLKISRVEAEDVGLYYCMQRIDFPYTFGQGTKVEIK
Reply text: 3.9

Inquiry: Item PD1-49B9 (antibody, V domains shown, scFv-phage in the screening ELISA; later whole IgG) VH: QMQLVESGGGLVQPGRSLRLSCAASGFTFEDYAMHWVRQPPGKGLEWVSSISWNSHNIAYADSVKGRFTISRDNSKNSLYLQMNSLRAEDTAVYYCSTSGLGVHAWGQGTMVTVSS VL: QSALTQPPSASGSPGQSVTISCTGTSSDVGGYNYVSWYQQHPGKAPKLMIYEVSKRPSGVPDRFSGSKSGNTASLTVSGLQPEDEADYYCSSFARNSNYVFGTGTKVTVL : provide OD490
Reply text: 4
